Target: T1, CD134 expressed on the cell surface of HT1080_OX40 cells (human, UniProt P43489 29-277)
T1 construct: whole, on cells; species not restated for the HT1080 transfectant
T1 sequence (looked up): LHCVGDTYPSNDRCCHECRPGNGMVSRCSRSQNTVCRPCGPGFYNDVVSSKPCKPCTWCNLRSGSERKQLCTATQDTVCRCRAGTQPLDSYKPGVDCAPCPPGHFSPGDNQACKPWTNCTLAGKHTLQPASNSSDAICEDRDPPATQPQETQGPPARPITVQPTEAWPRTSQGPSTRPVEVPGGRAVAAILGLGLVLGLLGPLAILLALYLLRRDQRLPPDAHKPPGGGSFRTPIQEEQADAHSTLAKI
Test: HT1080_OX40 cells, imaging; note: test concentration or dose not given here
property-measured: Cellular binding assay [RFU]
Could you give the number and then its unit, please?

P018.S.04.A.A06 (antibody, V domains shown, V regions on human Ig constant parts; also called AB134_5) VH: QSLEESGGRLVTPGTPLTLTCTVSGFSLHNYNIQWVRQAPGKGLEWIGWILTDGSPYCANWAKGRFTISKTSTTVDLKITSPTIEDTATYFCARMGDYNINGLWGPGTLVTVSS VL: AQVLTQTPSSVSAAVGGTVTINCQSSQRIYNNDFLSWYQQKPGQPPKLLIYAASTLASGVPSRFKGSGSGTQFTLTISDLESDDAATYYCQGGYSSSGWYLPFGGGTEVVVK: 486 RFU

Your task in this section: give Cellular binding assay [RFU] for each listed record.
1. P018.S.12.A.E03 (antibody, V domains shown, V regions on human Ig constant parts; also called AB134_74) VH: QSVEESGGRLVTPGTPLTLTCTVAGIDLNICGMSWVRQAPGKGLEWIGIIYPSDYTYYATWAKGRFTISKTSTTVDLKITSPTTEDTATYFCARGLGHAWSHFDLWGQGTLVTVSS VL: AFELTQTPASVSEPVGGTVTIKCQASQSIGSDLAWYQQKPGQPPKLLIYSVSNLPSGVSSRFKGSRSGTEYTLTISDLESADAATYYCQSYYGTITTGYIAFGGGTEVVVK
2. P018.S.11.A.B05 (antibody, V domains shown, V regions on human Ig constant parts; also called AB134_26) VH: QSVEESGGRLVTPGTPLTLTCTVSGFSLSTYNVAWVRQAPGKGLQYIGIMAFDGNTYYASWATGRFTISRTSTTVNLKITSPTTEDTATYFCCKGDPSSDTGTTLWGQGTLVTVSS VL: AAVLTQTPSSASEPVGGTVTIKCQSSPSVYSNNWLAWFQQKPGQRPKLLIYAAAKLASGVPSRFRGSGSGTQFTLTISDVQSDDAATYYCAGGFNSDSDTTFGGGTEVVVK
3. P018.S.05.A.G05 (antibody, V domains shown, V regions on human Ig constant parts; also called AB134_18) VH: QSVEESGGRLVTPGTPLTLTCTVSGIDLSNHGMGWFRQGPGKGLEWIGIIYIDGGASYASWVNGRFTISKTSTTVDLKITSPTTEDTATYFCARGIPSDGDSSYYYFNLWGQGTLVTVAS VL: DVVMTQTPASVEAAVGGTVTIKCQASQSVYNKYLSWFQQKPGQPPKLLIYRASTLESGVSSRFKGSGSGTEFTLTISDLESADAATYYCQNNNGAGDNTDYTFGGGTEVVVK
4. P018.S.11.A.D06 (antibody, V domains shown, V regions on human Ig constant parts; also called AB134_32) VH: QSLEESGGRLVKPGESLTLTCTVSEFSLSSNAMGWVRQAPGKGLEFIGLIDSGGDAYYATWAKGRFTISKTSSTTVDLKATSLTTEDTATYFCGRGYWFPRLGLWGQGTLVTVSS VL: AAVLTQTPSPVSAAVGGTVSINCQSTKNVYLNNWLGWFQKKPGQPPKLLIYDASTLASGVPSRFKGSGSGTEFTLTISDLESDDAATYYCAGAYDDNSDHTFGGGTEVVVK
5. P018.S.11.A.G03 (antibody, V domains shown, V regions on human Ig constant parts; also called AB134_43) VH: QSLEESGGRLVTPGTPLTLTCTASGFSLTNYAMNWVRQAPGKGLEWIGFINYDGNTYYANWAKGRFTISRTSTTVDLKITSPTTEDTATYFCARGGDGYTHIPDTFDPWGPGTLVTVSS VL: AFEMTQTPSSVSVAVGGTVTIKCQASQSIYSYLSWYQQKPGQPPKLLIYYASTLASGVPSRFVGSGSGTQFTLTISGVESADAATYYCQQGYSYSNIDNVFGGGTEMVVK
6. P018.S.11.A.E04 (antibody, V domains shown, V regions on human Ig constant parts; also called AB134_35) VH: QSVEESGGRLVTPGTPLTLTCTVSGFSLNDYAMSWVRQAPGKGLEWIGSIYTSGTPYYATWAKGRFTISKTSTTVDLKITSPTTEDTATYFCARQSGIDNYWLFTLWGQGTLVCVSS VL: AYDMTQTPASVEVGVGGTVTIKCQASESIASGLAWYQQKPGQRPKLLIYSASSLASGVSSRFKGSGSGTQFTLTISDLESADAANYYCQQGYTSTNLHNVFGGGTEVVVK
7. P018.S.11.A.G02 (antibody, V domains shown, V regions on human Ig constant parts; also called AB134_42) VH: QSVEESGGRLVTPGTPLTLTCTVSGFSLSGYDMSWVRQAPGKGLEWIGYIYGGNTYYANWAKGRFTISKTSTTVDLKMTSPTTEDTATYFCTRVGAGYSGVWAYFNLWGPGTLVTVSS VL: AQVLTQTPSSVSAAVGGTVTINCQSSQSVDSDNYLAWYQQKPGQPPKLLIYDTSKLASGVPSRFTGSGSGTQFTLTISGVQSDDAATYYCQGTYYNAGWYFAFGGGTEVVVK

OUT:
1: 482 RFU; 2: 456 RFU; 3: 463 RFU; 4: 130 RFU; 5: 450 RFU; 6: 416 RFU; 7: 357 RFU

Your task in this section: give Cellular binding assay [RFU] for each listed record.
1. P018.S.11.A.F03 (antibody, V domains shown, V regions on human Ig constant parts; also called AB134_39) VH: QEQLVESGGGLVQPEGSLTLTCKASGFDFNNNAMCWVRQAPGKGLEWIACIYDGSSGSTYYASWAKGRFTISKTSSSTVTLQMTSLTAADTATYFCARAYAAYTVYDYAFNLWGPGTLVTVSS VL: DVVMTQTPASVSEPVGGTVTIKCQASQSIGSDLAWYQQKPGQPPKLLIYYTTNLETGVSSRFKGSGSGTQFTLTISDLESADAATYYCQYADRSSYSFGGGTEVVVK
2. P018.S.12.A.E02 (antibody, V domains shown, V regions on human Ig constant parts; also called AB134_73) VH: QSVEESGGRLVTPGTPLTLTCTASGFTLSSYYMGWVRQAPGKGLEWIGIIYPSGSAYYATWTKGRFTISRTSTTVDLKVTGPTTEDTATYFCARSTTSSLYYGYNLWGQGTLVTVSS VL: DIVMTQTPASVEAAVGGTVTIKCQASASITNWLAWYQQKPGQPPKLLIYKASTLESGVPSRFKGSGSGTEFTLTISDLESADAASYYCQSNYGGGSDTSHTFGGGTGVVVK

OUT:
["522 RFU", "497 RFU"]
